Read-out: Monocyte Chemoattractant Protein-1 (MCP1), CCL2 (gene 6347)
PROTOCOL_TEXT: BSK_4H_MCP1: BioMAP Diversity Plus: 4H Assay for Monocyte Chemoattractant Protein-1 (MCP1) Biomarker Activity (AID 2283018)
CONDITION_PARAMETERS: primary human endothelial cells (HUVEC); actives raise or lower the signal
Active and inactive are the calls of the source. Rule for the calls: active = hit-call score of the fitted dose curve at least 0.9, where 1 is the maximum; inactive = score below 0.9.
Classes to choose from: 1 (yes) (active), 0 (no) (inactive)

Hello, I am checking results. What call was entered for CCCCCCCCCC/C=C/C1CC(=O)OC1=O (configuration not stated) ?
0 (no)

# lookup: test call for CN(C)CCC(c1ccc(Cl)cc1)c1ccccn1 (configuration not stated)
1 (yes)

In this assay, the call recorded for Cc1cc(-n2nc3ccc(Cl)cc3n2)c(O)c(C(C)(C)C)c1 was what?
0 (no)

Would you mind telling me which call this test gave CCCCCCC(O)CCCCCCCCCCC(=O)OC (configuration not stated) ?
1 (yes)

For CC[N+](CC)(CC(=O)Nc1c(C)cccc1C)Cc1ccccc1 (tested in a mixture with another compound) , which call appears in the assay record?
0 (no)

Which result was noted for this compound in the test: COc1ccccc1Oc1c(NS(=O)(=O)c2ccc(C(C)(C)C)cc2)nc(-c2ncccn2)nc1OCCO
0 (no)

# outcome recorded in this test, key = O=C(C(=O)c1ccccc1)c1ccccc1
0 (no)

Name the outcome recorded for Cc1c(C(N)=O)cc([N+](=O)[O-])cc1[N+](=O)[O-] in the assay.
0 (no)

I'd appreciate the recorded outcome for Oc1cccc2ccccc12 from this test.
0 (no)

Status in this test for CCC[Si](OC(C)=O)(OC(C)=O)OC(C)=O ?
0 (no)

Status in this test for CCC(C)=NO ?
0 (no)

// outcome(item) with item = CN(C)Cc1cc(C(C)(C)C)c(O)c(C(C)(C)C)c1
0 (no)

---

PROTOCOL_TEXT: TOX21_p53_BLA_p3_viability: Viability Assessment in the Tox21 HCT-116 p53 Agonism Beta-lactamase Assay, Phase 3 (AID 2283593);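 note: cells exposed to compound for 16 h before reading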
Text: TOX21_p53_BLA_p3 is a cell-based, single-readout assay that uses HCT116, a human intestinal cell line, […] in a 1536-well plate.TOX21_p53_BLA_p3_viability is an assay readout measuring cellular ATP content and detected with CellTiter-Glo Luciferase-coupled ATP quantitation.TOX21_p53_BLA_p3_viability used a type of viability reporter where loss-of-signal activity can be used to understand changes in the cell viability. […]
Records with an inconclusive call do not appear. Calls of active or inactive are those of the source. Rule for the calls: active = hit-call score of the fitted dose curve at least 0.9, where 1 is the maximum; inconclusive = response in the unintended direction; inactive = score below 0.9.
Response enum: active, inactive

Answer briefly: the call reported for Oc1cccc2ccccc12 in this assay.
inactive

Test call, this molecule: CC(C)=C1CC[C@@H](C)CC1=O
inactive

State the result this test recorded for COc1cc2c(cc1N)oc1ccccc12 .
inactive

Write down the call the test reported for this molecule. Item: C#C[C@]1(O)CC[C@H]2[C@@H]3[C@H](C)CC4=C(CCC(=O)C4)[C@H]3CC[C@@]21C
inactive

Check the results log: what was the call for COc1ccc(CCN(C)CCCC(C#N)(c2ccc(OC)c(OC)c2)C(C)C)cc1OC (configuration not stated) ?
inactive

Any idea what this test logged for Cc1nc2sccn2c(=O)c1CCN1CCC(=C(c2ccc(F)cc2)c2ccc(F)cc2)CC1 ?
active

// param item: CC(C)CC(=O)CC(C)CC(C)C (configuration not stated) ; yields the recorded call
inactive

Data provenance is PubChem BioAssay (EPA / NIEHS).
